Recorded phosphorylation enrichment by entry
Test system: Fer (mouse);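 note: 11-residue human phosphosite peptides and single-mutation variants displayed on the E. coli surface, counted by deep sequencing, each peptide's frequency after selection divided by its frequency in the unselected input library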;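 note: frequency after pTyr selection over input frequency; kinase dosed for 20-30% of maximal phosphorylation in three min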
run description: phosphorylation enrichment, bacterial display (enrichment ratio); higher = better substrate or ligand; peptides without Tyr show the background
Give your answer as a number; write no unit.

ISRVLYPNDNF [PYGM_Y281] | 0.422
SRIWVYNHYRC [BRCA2_Y2621_W2626C] | 0.482
SKEPYYVHCIK [MYO1D_Y586_R588H] | 0.498

Q: What does the data say about its phosphorylation enrichment? Entry: KPVDTYFDSTR [DYNC2H1_Y2230_M2227V_YF]
Result: 0.472

Q: What does the data say about its phosphorylation enrichment? Entry: DYYDLYGGKKF [PTPN11_Y66_E69K]
Result: 0.421

Q: What does the data say about its phosphorylation enrichment? Entry: VSSPKYGGDDE [TMCC2_Y473_S475G]
Result: 0.451

Q: What does the data say about its phosphorylation enrichment? Entry: EEEPVYKAEPE [HCLS1_Y360_E361K]
Result: 0.576

Q: What does the data say about its phosphorylation enrichment? Entry: YETSHYLASPD [CTNND2_Y1217_P1218L]
Result: 0.685
